Assay: qHTS of small molecules that selectively kill Giardia lamblia: Hit Validation. Note: potency is the fitted concentration of half-maximal effect.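 Note: viability measured as ATP content by luminescence so killing lowers signal; trophozoites exposed to compounds for 48 h anaerobically at 37 °C; nearly all actives have a fitted effect of over 65% in size.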
Settings: Giardia lamblia trophozoite viability, dose-response; series mostly up to 38.3 µM
About 1,000 (77%) of roughly 1,300 compounds were called active. Another 7% or so got no clear call; they are omitted. So high a share suggests a set chosen from earlier hits. This is one part of the list.
Measured Endpoint: Potency

> print(dat)
                                    molecule  experimental.value
 1  Cc1cc(C)n(S(=O)(=O)c2ccccc2[N+](=O)[O-])n1    1.83 µM (active)
 2  CN(C)c1ccc(C2NC(=O)c3ccccc3N2)cc1 (centres undefined)     6.5 µM (active)
 3    O=c1c([N+](=O)[O-])cccn1Cc1ccc(F)cc1Cl    2.31 µM (active)
 4        Cc1oc2c(c1C(=O)O)C(=O)c1ccccc1C2=O    3.26 µM (active)
 5  Cc1cccc(NC(=O)N2CCN(Cc3ccc4c(c3)OCO4)CC2)c1C            inactive
 6       O=c1c([N+](=O)[O-])cccn1Cc1ccccc1Cl     4.1 µM (active)
 7  O=C(Nc1nc2c(F)cccc2s1)c1ccc([N+](=O)[O-])o1    1.03 µM (active)
 8  CC(Oc1cccnc1[N+](=O)[O-])C(=O)Nc1cccc(Cl)c1 (centres undefined)    3.65 µM (active)
 9  Cc1c(N=Nc2ccc(N(C)C)cc2)c(=O)n(-c2ccccc2)n1C    0.65 µM (active)
10  COc1ccc(N(CC(=O)N/N=C/c2cccc(OC)c2OC)S(=O)(=O)c2ccccc2)cc1            inactive
11  COc1cc2nc(CN(C)Cc3ccc(C(C)(C)C)cc3)[nH]c(=O)c2cc1OC    5.16 µM (active)
12  Cc1ccc(S(=O)(=O)Nc2ccc(C(OC(=O)c3ccccc3[N+](=O)[O-])(C(F)(F)F)C(F)(F)F)cc2)cc1    3.65 µM (active)
13  Cc1nc([N+](=O)[O-])cn1-c1nc2ccccn2c1[N+](=O)[O-]    1.83 µM (active)
14      COc1ccc(CNc2ccc([N+](=O)[O-])cn2)cc1    7.29 µM (active)
15  COc1ccc(CCNc2oc(COc3ccc(Br)cc3)nc2C#N)cc1OC            inactive
16  O=C(Nc1ccc(N2CCN(Cc3ccccc3F)CC2)cc1)c1ccc([N+](=O)[O-])o1    1.16 µM (active)
17       CCOC(=O)N/N=C\c1ccc([N+](=O)[O-])s1     4.1 µM (active)
18  CC(NC(=O)COc1cccnc1[N+](=O)[O-])c1ccc(Cl)cc1Cl (centres undefined)    3.26 µM (active)
19        CC(=O)c1c(C)oc2c1C(=O)c1ccccc1C2=O     4.6 µM (active)
20  COc1ccc(NC(=O)C(c2ccc(Cl)cc2)C(C)C)cn1 (centres undefined)            inactive
21    O=C(Nc1csc([N+](=O)[O-])c1)Nc1ccccc1Cl    1.63 µM (active)
22  NCCCn1c(C(=O)c2ccc(Cl)cc2)c2ccc([N+](=O)[O-])cc2[n+]1[O-]    3.26 µM (active)
23  CC(CC(=O)Nc1ncc([N+](=O)[O-])s1)c1ccccc1 (centres undefined)   0.206 µM (active)
24  CCOC(=O)C1=C(C)NC2=C(C(=O)c3ccccc32)C1c1ccc([N+](=O)[O-])o1 (centres undefined)   0.729 µM (active)
25        Cc1ccc(C)c(Sc2ccc(NC(=O)CCl)cc2)c1   0.918 µM (active)
26      CN(C)c1ccc(C2Nc3cccc4cccc(c34)N2)cc1    3.65 µM (active)
27        COC(=O)N/N=C/c1ccc([N+](=O)[O-])s1     4.1 µM (active)
28  COc1ccc2nc(C)cc(N/N=C/c3cccc(OC)c3O)c2c1   0.918 µM (active)
29     O=C(NCC1CCN(Cc2ccccc2F)CC1)Nc1ccccc1F            inactive
30  NC(=O)c1ccc(Nc2ccc([N+](=O)[O-])cc2[N+](=O)[O-])cc1     2.9 µM (active)
31  CCOC(=O)C1=C(C)NC(=O)NC1c1ccc([N+](=O)[O-])o1 (centres undefined)    1.16 µM (active)
32  NC(=O)CCCn1c(C(=O)c2ccc(Cl)cc2)c2ccc([N+](=O)[O-])cc2[n+]1[O-]    1.16 µM (active)
33  CC(=NN1CC(=O)NC1=O)c1ccc([N+](=O)[O-])o1    1.45 µM (active)
34    COc1ccc(/C=N/Nc2cc(C)nc3c(C)cccc23)cc1   0.818 µM (active)
35  Cc1ccc(CSc2nnc(Cn3c(=O)sc4ccccc43)n2C)cc1            inactive
36  COc1ccc2nc(NC(=O)c3ccc([N+](=O)[O-])o3)sc2c1   0.918 µM (active)
37  CCOC(=O)N1CCN(C(=O)c2ccc(Cl)c(NC(=O)c3cccs3)c2)CC1            inactive
38     COc1ccccc1NC(=O)c1ccc([N+](=O)[O-])o1    1.45 µM (active)
39  CCOc1ccccc1C(=O)Nc1ccc2nc(N3CCN(c4ncccn4)CC3)cc(C)c2c1    3.26 µM (active)
40                COc1ccc(C(=S)NC2CCCCC2)cc1    1.03 µM (active)
41     Cn1nc([N+](=O)[O-])nc1Sc1cccc2cccnc12    7.29 µM (active)
42  COc1ccccc1NC(=O)C(=O)N/N=C/c1ccc([N+](=O)[O-])s1    2.05 µM (active)
43       COc1ccc(Cn2ccnc2SCC(=O)NC2CCCC2)cc1            inactive
44   CC(C)(C)n1nc(-c2ccc(Cl)cc2)c2c(N)ncnc21    14.5 µM (active)

Origin of measurements: PubChem BioAssay AID588397
